Sourced from patent USRE37781E1

Property label: melting point

[[record]]
molecule = "CCN1C(=O)N(CC)C(Cc2ccccc2)C(O)C(O)C1Cc1ccccc1 (stereo not shown) [Example 1AD]"
property_label = "melting point"
assay_result = "214 to 215 °C"

[[record]]
molecule = "N#Cc1cc(CN2C(=O)N(Cc3cccc(-c4cc[nH]n4)c3)C(Cc3ccccc3)C(O)C(O)C2Cc2ccccc2)ccc1F (stereo not shown) [Example 15CF]"
property_label = "melting point"
assay_result = "118 to 120 °C"

[[record]]
molecule = "O=C1N(Cc2cccc(-c3cnc[nH]3)c2)C(Cc2ccccc2)C(O)C(O)C(Cc2ccccc2)N1Cc1cccc(-c2cnc[nH]2)c1 (stereo not shown) [Example 15BK]"
property_label = "melting point"
assay_result = "171 to 175 °C"

[[record]]
molecule = "O=C1Nc2ccc(CN3C(=O)N(Cc4ccc5c(c4)C(=O)C(=O)N5)C(Cc4ccccc4)C(O)C(O)C3Cc3ccccc3)cc2C1=O (stereo not shown) [15DA]"
property_label = "melting point"
assay_result = "196 to 200 °C"

[[record]]
molecule = "NC(=NO)c1cccc(CN2C(=O)N(Cc3ccc(O)cc3)C(Cc3ccccc3)C(O)C(O)C2Cc2ccccc2)c1 (stereo not shown) [15AU]"
property_label = "melting point"
assay_result = "195 to 197 °C"

[[record]]
molecule = "O=C1N(Cc2ccc(-c3ccccc3)cc2)C(Cc2ccccc2)C(O)C(O)C(Cc2ccccc2)N1Cc1ccc(-c2ccccc2)cc1 (stereo not shown) [Example 4R]"
property_label = "melting point"
assay_result = "109 to 110 °C"

[[record]]
molecule = "C=CCOc1cccc(CN2C(=O)N(Cc3cccc(O)c3)C(Cc3ccccc3)C(O)C(O)C2Cc2ccccc2)c1 (stereo not shown) [Example 5M]"
property_label = "melting point"
assay_result = "78 to 79 °C"

